Collected polymerase ribozyme fitness (log ratio) values appear next to each entry.
B1: TPR 5TU (parent)
chain: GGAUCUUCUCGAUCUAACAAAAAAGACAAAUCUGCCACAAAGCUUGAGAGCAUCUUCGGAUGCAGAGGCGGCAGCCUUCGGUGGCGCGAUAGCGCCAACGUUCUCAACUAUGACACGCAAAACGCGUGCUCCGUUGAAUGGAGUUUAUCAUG

- Variants of: B1
- assaySummary: polymerase ribozyme fitness, log enrichment relative to wild type (log ratio); higher = more active; in vitro selection for triplet polymerase activity
Variants at the floor of the assay were thinned out.

>  <changes>
A26U A37C C95G A107C G152U

>  <boundOperator>
≤

>  <polymerase ribozyme fitness (log ratio)>
-4.2

$$$$
>  <changes>
A30U C32G U55G G74A A89G C93A G133U A142C

>  <boundOperator>
≤

>  <polymerase ribozyme fitness (log ratio)>
-4.2

$$$$
>  <changes>
A3C U9A A30U G48A U53A C54U G67U C93G G126A U135G

>  <boundOperator>
≤

>  <polymerase ribozyme fitness (log ratio)>
-4.2

$$$$
>  <changes>
U6G C85A C125G

>  <boundOperator>
=

>  <polymerase ribozyme fitness (log ratio)>
-0.955

$$$$
>  <changes>
A24G C35U G48U A52U C125A

>  <boundOperator>
≤

>  <polymerase ribozyme fitness (log ratio)>
-4.2

$$$$
>  <changes>
G34U G58C C69U A91G G128A U135C

>  <boundOperator>
≤

>  <polymerase ribozyme fitness (log ratio)>
-4.2

$$$$
>  <changes>
U55A U82G C116A A121U A137C

>  <boundOperator>
=

>  <polymerase ribozyme fitness (log ratio)>
-3.5

$$$$
>  <changes>
C93U U104G

>  <boundOperator>
=

>  <polymerase ribozyme fitness (log ratio)>
-1.8

$$$$
>  <changes>
C51G A106G U144A

>  <boundOperator>
=

>  <polymerase ribozyme fitness (log ratio)>
-3.29

$$$$
>  <changes>
A17U A30C C38U U53G G58U C99U C132U

>  <boundOperator>
≤

>  <polymerase ribozyme fitness (log ratio)>
-4.2

$$$$
>  <changes>
A52G A121C

>  <boundOperator>
=

>  <polymerase ribozyme fitness (log ratio)>
-0.337

$$$$
>  <changes>
C14G A30G G46C C95U

>  <boundOperator>
=

>  <polymerase ribozyme fitness (log ratio)>
-4.17

$$$$
>  <changes>
A21U U78G

>  <boundOperator>
≤

>  <polymerase ribozyme fitness (log ratio)>
-4.2

$$$$
>  <changes>
C5U G25C G42U U61A A107U G133U A142C U148A

>  <boundOperator>
≤

>  <polymerase ribozyme fitness (log ratio)>
-4.2

$$$$
>  <changes>
A19G C93A

>  <boundOperator>
=

>  <polymerase ribozyme fitness (log ratio)>
-3.43

$$$$
>  <changes>
A20U G92A A121U G141C

>  <boundOperator>
=

>  <polymerase ribozyme fitness (log ratio)>
-4.03

$$$$
>  <changes>
C10U A30U A49C C87U A89G C95G U104C C116U A119U G136C

>  <boundOperator>
≤

>  <polymerase ribozyme fitness (log ratio)>
-4.2

$$$$
>  <changes>
U9G C10G A17G A22G A23U G50A A73G

>  <boundOperator>
≤

>  <polymerase ribozyme fitness (log ratio)>
-4.2

$$$$
>  <changes>
A73U A150G

>  <boundOperator>
=

>  <polymerase ribozyme fitness (log ratio)>
-2.68

$$$$
>  <changes>
G58C C85U

>  <boundOperator>
=

>  <polymerase ribozyme fitness (log ratio)>
-1.17

$$$$
>  <changes>
A19G U33C A49C C54U G81A C87U

>  <boundOperator>
≤

>  <polymerase ribozyme fitness (log ratio)>
-4.2

$$$$
>  <changes>
A41C G136A

>  <boundOperator>
=

>  <polymerase ribozyme fitness (log ratio)>
0.215

$$$$
